IC50 tested on AChE (Homo sapiens, UniProt P22303): recorded values
Sequence (P22303 32-614): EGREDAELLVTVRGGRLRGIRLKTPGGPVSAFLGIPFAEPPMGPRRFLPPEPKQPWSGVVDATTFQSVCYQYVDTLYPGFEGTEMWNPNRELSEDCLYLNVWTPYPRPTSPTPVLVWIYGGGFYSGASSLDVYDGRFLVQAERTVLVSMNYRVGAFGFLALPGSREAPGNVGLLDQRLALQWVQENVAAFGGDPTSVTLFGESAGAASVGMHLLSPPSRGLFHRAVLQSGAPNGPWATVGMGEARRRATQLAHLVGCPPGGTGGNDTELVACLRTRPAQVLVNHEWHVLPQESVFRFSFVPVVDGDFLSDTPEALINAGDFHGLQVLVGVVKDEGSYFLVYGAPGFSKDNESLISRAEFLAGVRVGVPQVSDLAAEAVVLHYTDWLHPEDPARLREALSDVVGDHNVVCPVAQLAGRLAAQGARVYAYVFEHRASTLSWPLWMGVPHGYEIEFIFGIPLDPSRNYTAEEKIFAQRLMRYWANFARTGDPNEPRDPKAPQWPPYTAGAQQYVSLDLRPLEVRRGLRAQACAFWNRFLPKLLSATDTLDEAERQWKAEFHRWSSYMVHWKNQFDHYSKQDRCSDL
assay endpoint: IC50 (µM)

| compound | comparison sign | numeric result |
| --- | --- | --- |
| O=C1c2c(O)cc(O)cc2O[C@H](c2ccc(O)cc2)[C@H]1O [Compound 10, dihydrokaempferol] | > | 50 |
| O=c1c(O)c(-c2ccc(O)c(O)c2)oc2cc(O)cc(O)c12 | = | 3.96 |
| O=c1c(O)c(-c2ccc(O)cc2)oc2cc(O)cc(O)c12 | = | 17.9 |
